I'd appreciate it if you could supply normalized analyte binding to RBD2 held by the immobilized ligand values for the items below.
# Assayed Target: SARS-CoV-2 spike protein receptor binding domain (RBD2) (SARS-CoV-2, UniProt P0DTC2 319-537)
# Experimental Details: SPR sandwich binning, ligand F07

INSERT INTO results (binder, observed_measurement) VALUES
  ('S01 IgG1 (antibody, V domains shown, also called 501) VH: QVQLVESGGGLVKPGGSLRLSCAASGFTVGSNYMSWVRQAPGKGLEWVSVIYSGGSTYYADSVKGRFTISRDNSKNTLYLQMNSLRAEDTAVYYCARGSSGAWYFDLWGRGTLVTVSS VL: EIVMTQSPSSLSASVGDSVTITCQASQDISNYLNWYQQKPGKAPKLLIYDASNLETGVPSRFSGGGSGTDFTLTITSLQPEDIATYYCQQYDNFPPTFGPGTKVDIK', 0.48),
  ('E01 IgG1 (antibody, V domains shown, also called E1) VH: QVQLQQWGAGLLKPSETLSLKCAVYGGSFSGYYWGWIRQSTGKGLEWIGEINRSGSTNYNPSLKSRVTISVDTSKNQFSLKLSSVTAADTAVYYCARGGARYYYGSGSYRSTPRPYYFDYWGQGTLVTVSS VL: SYELTQPPSVSVAPGETARITCGGDNIGRRHVHWYQQKPGQAPVLVIYDDSDRPSGIPDRFSGSNSGNTATLTIGRVEAGDEADYYCQVWGSSNDPHVFGTGTKLTVL', 0.62);

Now turn to the next binder.
## Task For H01 IgG1 (antibody, V domains shown, also called H1) VH: QVTLKESGPVLVKPTETLTLTCTVSGFSLSNARMGVSWIRQPPGKALEWLAHIFSNGEKSYSTSLKSRLTISKDTSKSQVVLTMTNMDPVDTATYYCARTLDYYDSSGYLVGGAFDIWGQGTMVTVSS VL: QPGLTQPPSVSLAPGQTARITCGGNNIGSKSVHWYQQKPGQAPVLVVYDDSDRPSGIPERFSGSNAGNTATLTISRVEAGDEADYYCQVWDSRSDQYVFGTRTKLTVL , what is its reported normalized analyte binding to RBD2 held by the immobilized ligand?
## Result 0.03
